MDA-MB-435: reported GI50 for various compounds.

COMPOUND | GI50
COc1cc2c(=O)n(CC3CCCCC3)c3c4cc[nH]c4ncc3c2cc1OC | 4.15 µM
CC(C)(C)CC(C)(C)NCC(O)COc1ccc(C(C)(C)c2ccc(OCC(O)CNC(C)(C)CC(C)(C)C)cc2)cc1 (stereo unspecified) | 0.513 µM
c1ccc(-c2cc3n4c(-c5ccccc5)nn(-c5ccccc5)c4cnc-3n2)cc1 | > 50 µM
CSc1nc2ccc(C)cc2cc1/C=C1/C=C(c2ccccc2)NC1=O | 0.718 µM
CNc1nc(-c2ccc3c(N)n[nH]c3c2)cc(N2C[C@@H](C(=O)NC3CCCCC3)CC[C@H]2C)n1 | 1.11 µM
C1CC[N-]CC1.CC(=N\O)/C(C)=N/O.CC(=N\O)/C(C)=N/O.C[CH-]C(C)O.[Co+2] | 23.1 µM

* * *

tested on: NCI-H226 lung; test: NCI tumour cell line growth inhibition, 48 h
Where a SMILES comes first, the peptide text is derived from it. [ ]: non-standard residue; d: D form.

MOLECULE | TGI
O=C(CN1CCN(c2ccccn2)CC1)N1CCCn2c1nc1ccccc1c2=O | > 100 µM
CC1=NN2CCC(=O)N=C2S1 | > 100 µM
CSCC[C@H](NC(=O)[C@@H](N)CC(N)=O)C(=O)N[C@@H](Cc1c[nH]c2ccccc12)C(=O)N[C@@H](CCC(N)=O)C(=O)N[C@@H](CCC(=O)O)C(=O)N[C@H](C(=O)NCC(=O)N[C@@H](CCCCN)C(=O)N[C@H](C)C(=O)O)C(C)C (H-NMWQEVGK[dA]-OH) | > 100 µM
c1ccc(OCc2nnc(CCCCCCCCc3nnc(COc4ccccc4)o3)o2)cc1 | > 100 µM
Cc1cn2cc(-c3ccc4c(c3)CC(=O)N4)nc2s1 | > 100 µM
O=C(/C=C/c1ccc(Cl)cc1Cl)c1ccc(Cl)cc1Cl | 40.8 µM
CC(C)N1[C@@H]2CCCC[C@H]2N(C(C)C)[P+]1=O | > 100 µM
CCN(CC)CCNc1ccc([N+](=O)[O-])c2nc3ccc(OC)cc3c(N)c12 | 4.41 µM
COc1cccc(N(CN2C(=O)CCC2OC)C(C)=O)c1 (centres undefined) | > 100 µM

* * *

tested on: OVCAR-4 ovarian; experiment: NCI tumour cell line growth inhibition, 48 h; in the data active = GI50 below about 0.43 µM; inactive = the rest
Classes used: yes (1) for active, no (0) for inactive

COMPOUND | CLASS LABEL
Cn1cccc1-c1cc(-c2ccccc2)nc(N)c1C#N | no (0)
CS(=O)(=O)CCNCc1ccoc1-c1ccc2ncnc(Nc3ccc(OCc4ccccc4)cc3)c2c1 | no (0)
Cn1cc(-c2csc(-c3cn(C(=O)OC(C)(C)C)c4ccccc34)n2)c2cccnc21 | no (0)
Cc1c2ccccc2c(C)n2c1nc1cc(Cl)c(Cl)cc12 | no (0)
COc1ccc(F)cc1-c1ccnc2[nH]c(C3=CCN(C4CCC(CC(=O)O)CC4)CC3)cc12 (stereo not given) | yes (1)

* * *

test system: HCC-2998 colon; assay: NCI tumour cell line growth inhibition, 48 h

MOLECULE | GI50
CNC(=O)c1cc(-c2ccc(F)cc2)cc(-c2ccc(S(=O)(=O)N3CCCC3)cc2)c1N | > 25 µM
N=C(N)c1ccc(-c2ccc(-c3ccc(Cl)cc3Cl)s2)nc1 | 1.74 µM
Cc1cc2nc(-c3ccc(O)c(O)c3)n(Cc3ccc(O)c(O)c3)c2cc1C | 24.6 µM
COC(=O)c1cc(C)[nH]c2c(C)cc3nc4ccccc4c3c12 | 8.99 µM
CSc1nc2ccc(C)cc2cc1/C=C1/C=C(c2ccccc2)NC1=O | > 100 µM
C[C@@H](C[C@H](CCO)c1ccccc1)c1ccc2ccccc2c1 | 1.74 µM
COc1cc2c(=O)n(CC3CCCCC3)c3c4cc[nH]c4ncc3c2cc1OC | 18.7 µM
COc1ccc(F)cc1-c1ccnc2[nH]c(C3=CCN(C4CCC(CC(=O)O)CC4)CC3)cc12 (stereo not given) | 0.299 µM
COc1ccc2c(c1)C=CC1C2CC[C@]2(C)C(NC(=O)/C=C/c3ccc(O)c(O)c3)CCC12 (stereo not given in full) | 14.4 µM
CS(=O)(=O)CCNCc1ccoc1-c1ccc2ncnc(Nc3ccc(OCc4ccccc4)cc3)c2c1 | > 25 µM
